- TARGET OF ASSAY: KRAS G12C (Homo sapiens, UniProt P01116, G12C)
- Sequence (P01116 1-188 isoform P01116-2 G12C): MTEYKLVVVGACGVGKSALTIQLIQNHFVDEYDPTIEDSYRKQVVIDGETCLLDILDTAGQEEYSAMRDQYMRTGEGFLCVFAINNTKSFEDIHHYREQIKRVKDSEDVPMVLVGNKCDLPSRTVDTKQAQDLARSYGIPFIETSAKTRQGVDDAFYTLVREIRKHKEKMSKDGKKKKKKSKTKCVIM
- MEASUREMENT PROTOCOL: GDP-GTP exchange assay (KRAS_G12C exchange)
- ASSAY CONDITIONS: bodipy-GDP loaded KRAS G12C 2.5 nM, SOS1 150 nM, GppNHp; 2 hours pre-incubation, 2 hours reaction; read-out: G12C_exchange
In this section, each of the molecules is paired with its reported IC50.

[
  {
    "MOLECULE": "C=CC(=O)N1CC[C@H](n2cnc3c(-c4cccnc4C)nc4c(F)c(-c5cccc(Cl)c5C)c(Cl)cc4c32)C[C@H]1CC#N [Example 173]",
    "IC50": "≤ 100 nM"
  },
  {
    "MOLECULE": "CC#CC(=O)N1CC[C@H](n2cnc3c(N4CC(N(C)C)C4)nc4c(F)c(-c5cccc(C)c5C(F)(F)F)c(Cl)cc4c32)C[C@H]1CC#N [Example 263]",
    "IC50": "≤ 100 nM"
  },
  {
    "MOLECULE": "CC#CC(=O)N1CC[C@H](n2nnc3c(N4CC(C)(N(C)C)C4)nc4c(F)c(-c5cccc(C)c5Cl)c(C(F)(F)F)cc4c32)C[C@H]1CC#N [Example 236]",
    "IC50": "≤ 100 nM"
  },
  {
    "MOLECULE": "C=CC(=O)N1CC[C@H](n2cnc3c(N4CC(N(C)C)C4)nc4c(F)c(-c5cnccc5C)c(Cl)cc4c32)C[C@H]1CC#N [Example 108]",
    "IC50": "≤ 100 nM"
  },
  {
    "MOLECULE": "Cc1cccc(-c2c(C)cc3c(nc(N4CC(N(C)C)C4)c4nnn([C@H]5CCN(C(=O)/C=C/CF)[C@H](CC#N)C5)c43)c2F)c1C [Example 206]",
    "IC50": "≤ 100 nM"
  }
]

Ask | Please give the measured IC50 for this molecule: C=CC(=O)N1CC[C@H](n2nnc3c(N4CC(C)(N(C)C)C4)nc4c(F)c(-c5cccc(Cl)c5C)c(C)cc4c32)C[C@H]1CC#N [Example 101]
Reply | ≤ 100 nM

====

pIC50 by entry:
- TARGET OF ASSAY: KRAS G12D (Homo sapiens, UniProt P01116, G12D)
- Sequence (P01116 1-188 isoform P01116-2 G12D): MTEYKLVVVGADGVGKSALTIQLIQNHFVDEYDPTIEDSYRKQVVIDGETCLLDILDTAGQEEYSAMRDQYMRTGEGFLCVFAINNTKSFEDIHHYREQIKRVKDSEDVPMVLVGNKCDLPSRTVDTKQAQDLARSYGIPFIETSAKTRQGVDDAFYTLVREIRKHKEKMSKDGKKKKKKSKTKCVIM
- MEASUREMENT PROTOCOL: GDP-GTP exchange assay (KRAS_G12D exchange)
- ASSAY CONDITIONS: bodipy loaded KRAS G12D 2.5 nM; 4 hours incubation after GppNHp-SOS1; read-out: G12D_exchange
pIC50: −log10 of the molar value.

Example entries begin here.
[
  {
    "COMPOUND": "CN(C)C1CN(c2nc3c(F)c(-c4cc(O)cc5ccccc45)c(C#N)cc3c3c2ncn3[C@H]2[C@H]3CN[C@@H]2C3)C1 (relative stereo) [Example 50]",
    "VALUE REPORTED": "6.00 to 7.00"
  },
  {
    "COMPOUND": "Oc1cc(-c2c(Cl)cc3c(nc(N4C5CCC4CNC5)c4ncn([C@H]5[C@H]6CN[C@@H]5C6)c43)c2F)c2ccccc2c1 (single isomer, unassigned) [Example 35a]",
    "VALUE REPORTED": "5.30 to 6.00"
  },
  {
    "COMPOUND": "CN(C)C1CN(c2nc3c(F)c(-c4cc(O)cc5ccccc45)c(Cl)cc3c3c2nc(-c2cn(C)cn2)n3[C@H]2[C@H]3CN[C@@H]2C3)C1 [Example 78]",
    "VALUE REPORTED": "6.00 to 7.00"
  }
]

Ask | I would be grateful if you could share the reported pIC50 for CCc1nc2c(N3CC(N(C)C)C3)nc3c(F)c(-c4cc(O)cc5ccccc45)c(CCC#N)cc3c2n1C1C2CC1N(Cc1ccc[nH]1)C2 (single isomer, unassigned) [Example 296b] .
Reply | ≥ 7.00

Ask | Which value of pIC50 has been reported for CN(Cc1ccccn1)C(=O)CCc1nc2c(N3CC(N(C)C)C3)nc3c(F)c(-c4cc(O)cc5ccccc45)c(CCC#N)cc3c2n1C1C2CNC1C2 (stereo not drawn) [Example 301a] in the records?
Reply | ≥ 7.00

Ask | So what's the measured pIC50 for this one? CN(C)Cc1nc2c(N3CC(N(C)C)C3)nc3c(F)c(-c4cc(O)cc5ccccc45)c(Cl)cc3c2n1[C@H]1[C@H]2CN[C@@H]1C2 (racemic) [Example 49]
Reply | 5.00 to 5.30

====

IC50 values for the compounds below.
- TARGET OF ASSAY: KRAS G12D (Homo sapiens, UniProt P01116, G12D)
- MEASUREMENT PROTOCOL: GDP-GTP exchange assay (KRAS_G12D exchange)
- ASSAY CONDITIONS: bodipy loaded KRAS G12D 2.5 nM; 4 hours incubation after GppNHp-SOS1; read-out: G12D_exchange

[
  {
    "COMPOUND": "CN(C)C(=O)CCc1nc2c(N3CC(N(C)C)C3)nc3c(F)c(-c4cc(O)cc5ccccc45)c(Cc4ccccc4C#N)cc3c2n1C1C2CNC1C2 (centres unmarked) [Example 299]",
    "IC50": "≤ 100 nM"
  },
  {
    "COMPOUND": "CNCCc1nc2c(N3CC(N(C)C)C3)nc3c(F)c(-c4cc(O)cc5ccccc45)c(-c4cn[nH]c4)cc3c2n1C1C2CNC1C2 (single isomer, unassigned) [Example 295b]",
    "IC50": "100 to 1000 nM"
  },
  {
    "COMPOUND": "CN(C)C1CN(c2nc3c(F)c(-c4cc(O)cc5ccccc45)c(Cl)cc3c3c2nc(CO)n3[C@H]2[C@H]3CN[C@@H]2C3)C1 (relative stereo) [Example 75]",
    "IC50": "100 to 1000 nM"
  },
  {
    "COMPOUND": "CN(C)C1CN(c2nc3c(F)c(-c4cc(O)cc5ccccc45)c(Cl)cc3c3c2nc(C2CCS(=O)(=O)CC2)n3[C@H]2[C@H]3CN[C@@H]2C3)C1 (relative stereo) [Example 79]",
    "IC50": "100 to 1000 nM"
  },
  {
    "COMPOUND": "CN(C)C1CN(c2nc3c(F)c(-c4cc(O)cc5ccccc45)c(Cl)cc3c3c2nc(CCN)n3[C@H]2[C@H]3CN[C@@H]2C3)C1 [Example 76]",
    "IC50": "100 to 1000 nM"
  }
]

Ask | I would be grateful if you could share the reported IC50 for CNC(=O)c1cc(-c2nc3c(F)c(-c4cc(O)cc5ccccc45)c(CCC#N)cc3c3c2nc(CCC(=O)N(C)C)n3C2C3CNC2C3)ccc1F (centres unmarked) [Example 297] .
Reply | ≤ 100 nM

Ask | Query (compound): Cc1nc2c(N3CC(N(C)C)C3)nc3c(F)c(-c4cc(O)cc5ccccc45)c(Cl)cc3c2n1[C@H]1[C@H]2CN[C@@H]1C2 [Example 15] ; field requested: IC50
Reply | 1000 to 5000 nM

Ask | // lookup IC50 for CN(C)C1CN(c2nc3c(F)c(-c4cc(O)cc5ccccc45)c(Cl)cc3c3c2ncn3[C@H]2[C@H]3CN[C@@H]2C3)C1 (single isomer, unassigned) [Example 48a]
Reply | 100 to 1000 nM

Ask | What value of IC50 has been reported for the following compound? Cc1cc2c(nc(N3CC(N(C)C)C3)c3ncn([C@H]4[C@H]5CN[C@@H]4C5)c32)c(F)c1-c1cc(O)cc2ccccc12 (single isomer, unassigned) [Example 34a]
Reply | 100 to 1000 nM

Ask | Quick check: IC50 of CN(C)C1CN(c2nc3c(F)c(-c4cc(O)cc5ccccc45)c(-c4cn[nH]c4)cc3c3c2ncn3[C@H]2[C@H]3CN[C@@H]2C3)C1 (single isomer, unassigned) [Example 25a] ?
Reply | 5000 to 10000 nM

Ask | Could you tell me which IC50 is on file for CCc1nc2c(N3CC(N(C)C)C3)nc3c(F)c(-c4cc(O)cc5ccc(F)cc45)c(CCC#N)cc3c2n1C1C2CNC1C2 (single isomer, unassigned) [Example 292b] ?
Reply | ≤ 100 nM

====

- TARGET OF ASSAY: KRAS G12C (Homo sapiens, UniProt P01116, G12C)
- MEASUREMENT PROTOCOL: GDP-GTP exchange assay (KRAS_G12C exchange)
- ASSAY CONDITIONS: bodipy-GDP loaded KRAS G12C 2.5 nM, SOS1 150 nM, GppNHp; 2 hours pre-incubation, 2 hours reaction; read-out: G12C_exchange
Reported IC50 values follow for various compounds

Solved entries (count: 2):
[
  {
    "COMPOUND": "C=CC(=O)N1CCC(n2nnc3c(N4CC(C)(N(C)C)C4)nc4c(F)c(-c5cccc(C)c5)c(Cl)cc4c32)C[C@H]1CC#N (stereo partly drawn) [Example 211]",
    "OBSERVABLE": "IC50",
    "VALUE REPORTED": "≤ 100 nM"
  },
  {
    "COMPOUND": "C=CC(=O)N1CC[C@H](n2cnc3c(N4CC(N(C)C)C4)nc4c(F)c(-c5cccc6ccccc56)c(Cl)cc4c32)C[C@H]1CC#N [Example 46]",
    "OBSERVABLE": "IC50",
    "VALUE REPORTED": "≤ 100 nM"
  }
]

Next, consider the following compound.
Ask | // IC50 lookup, key: C=CC(=O)N1CC[C@H](n2cnc3c(OC[C@@H]4CCCN4C)nc4c(F)c(-c5cccc(Cl)c5C)c(Cl)cc4c32)C[C@H]1CC#N (single isomer, unassigned) [Example 118a]
Reply | ≤ 100 nM
